Numbers sourced from paper PMC11207571.

For each of the compounds below, state its IC50.
- TARGET_OR_TEST_SYSTEM: mouse Mdr1a (Mus musculus)
- EXPERIMENT_SUMMARY: Inhibition of 3H-digoxin or 3H-quinidine bidirectional transport in mMDR1 cells
- Assay type: cell-based
- Set-up: mouse Mdr1a (NM_011076.3); expressed in transfected cells; host or cells: Abcb1KO-MDCKII (canine kidney, endogenous Abcb1 knocked out), transduced, single-cell clone
- TEST_SETTINGS: Inhibition of digoxin transport IC50±SD, mMDR1, probe 3H-digoxin 1 µM, 120 min; IC50 from ER
Please reply with the bare figure in nM and do not write the unit itself.

Which IC50 value is on record for CN(C)C(=O)C(CCN1CCC(O)(c2ccc(Cl)cc2)CC1)(c1ccccc1)c1ccccc1 [Loperamide] ?
6500

Which IC50 value is on record for CCOC(=O)C1=C(C)NC(C)=C(C(=O)OC)C1c1cccc(Cl)c1Cl (centres unmarked) ?
28600

Which IC50 value is on record for "COc1cc2c(cc1OC)CN(CCc1ccc(NC(=O)c3cccc4c(=O)c5cccc(OC)c5[nH]c34)cc1)CC2" ?
100

Which IC50 value is on record for "CCCc1nc2c(C)cc(-c3nc4ccccc4n3C)cc2n1Cc1ccc(-c2ccccc2C(=O)O)cc1" ?
2600

Which IC50 value is on record for "O[C@@H](COc1cccc2ncccc12)CN1CCN([C@@H]2c3ccccc3[C@@H]3[C@H](c4ccccc42)C3(F)F)CC1" ?
370

Which IC50 value is on record for COc1ccccc1OCCNCC(O)COc1cccc2[nH]c3ccccc3c12 (centres unmarked) ?
2000

Which IC50 value is on record for "COCC(=O)O[C@]1(CCN(C)CCCc2nc3ccccc3[nH]2)CCc2cc(F)ccc2[C@@H]1C(C)C" ?
7150

----------
- TARGET_OR_TEST_SYSTEM: human MDR1 (Homo sapiens, UniProt P08183)
- Sequence (P08183 whole entry): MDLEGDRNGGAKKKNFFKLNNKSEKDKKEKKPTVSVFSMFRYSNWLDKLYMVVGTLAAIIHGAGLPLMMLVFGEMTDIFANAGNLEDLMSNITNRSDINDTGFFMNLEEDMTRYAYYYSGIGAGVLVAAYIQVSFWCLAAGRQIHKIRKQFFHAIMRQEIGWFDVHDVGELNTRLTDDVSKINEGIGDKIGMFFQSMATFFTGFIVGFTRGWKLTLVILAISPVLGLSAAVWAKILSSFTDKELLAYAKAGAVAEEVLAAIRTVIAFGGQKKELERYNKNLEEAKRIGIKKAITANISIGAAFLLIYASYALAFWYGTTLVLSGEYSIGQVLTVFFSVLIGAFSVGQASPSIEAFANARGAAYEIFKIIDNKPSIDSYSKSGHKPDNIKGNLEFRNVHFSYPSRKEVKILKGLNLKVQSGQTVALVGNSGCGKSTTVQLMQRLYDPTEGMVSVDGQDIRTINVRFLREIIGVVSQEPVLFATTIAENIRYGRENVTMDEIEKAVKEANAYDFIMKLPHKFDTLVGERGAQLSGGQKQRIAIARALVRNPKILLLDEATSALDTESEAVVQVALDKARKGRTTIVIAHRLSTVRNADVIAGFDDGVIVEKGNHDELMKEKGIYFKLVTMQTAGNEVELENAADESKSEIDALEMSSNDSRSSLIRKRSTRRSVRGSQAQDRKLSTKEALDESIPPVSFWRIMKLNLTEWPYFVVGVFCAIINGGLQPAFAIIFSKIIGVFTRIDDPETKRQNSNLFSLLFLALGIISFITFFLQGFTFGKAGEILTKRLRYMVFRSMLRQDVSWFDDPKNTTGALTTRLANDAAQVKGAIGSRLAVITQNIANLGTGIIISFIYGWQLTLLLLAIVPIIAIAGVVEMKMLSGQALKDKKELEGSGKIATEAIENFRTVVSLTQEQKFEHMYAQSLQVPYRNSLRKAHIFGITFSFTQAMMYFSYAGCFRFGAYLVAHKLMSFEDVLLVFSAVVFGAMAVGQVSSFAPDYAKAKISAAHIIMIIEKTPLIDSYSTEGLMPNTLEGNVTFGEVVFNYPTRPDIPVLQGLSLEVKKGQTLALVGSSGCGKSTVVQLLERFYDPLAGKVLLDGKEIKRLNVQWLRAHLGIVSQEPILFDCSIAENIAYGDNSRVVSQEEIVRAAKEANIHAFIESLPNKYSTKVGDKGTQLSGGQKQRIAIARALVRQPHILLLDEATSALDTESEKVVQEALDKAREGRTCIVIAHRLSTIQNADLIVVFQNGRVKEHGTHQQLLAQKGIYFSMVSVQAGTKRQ
- EXPERIMENT_SUMMARY: Bidirectional transport assay, efflux ratio in Abcb1KO-MDCKII hMDR1 cells
- TEST_SETTINGS: human, MDCK-MDR1, pH 7.4
READOUT_KIND: efflux ratio at 120 min, 1 µM
Kindly provide the number alone.

Which efflux ratio at 120 min, 1 µM value is on record for "CC[C@H]1OC(=O)[C@H](C)[C@@H](O[C@H]2C[C@@](C)(OC)[C@@H](O)[C@H](C)O2)[C@H](C)[C@@H](O[C@@H]2O[C@H](C)C[C@H](N(C)C)[C@H]2O)[C@](C)(OC)C[C@@H](C)C(=O)[C@H](C)[C@@H](O)[C@]1(C)O" ?
96.2

Which efflux ratio at 120 min, 1 µM value is on record for "COc1cc2ncnc(Nc3ccc(F)c(Cl)c3)c2cc1OCCCN1CCOCC1" ?
30.5

Which efflux ratio at 120 min, 1 µM value is on record for "COc1ccc2c(c1)c(CC(=O)O)c(C)n2C(=O)c1ccc(Cl)cc1" ?
0.42

Which efflux ratio at 120 min, 1 µM value is on record for CN(C)CCC=C1c2ccccc2COc2ccccc21 [Doxepin] ?
0.79

Which efflux ratio at 120 min, 1 µM value is on record for "N=C(N)N/N=C/c1c(Cl)cccc1Cl" ?
0.82

Which efflux ratio at 120 min, 1 µM value is on record for "CC(C)(C)NC(=O)[C@@H]1CN(Cc2cccnc2)CCN1C[C@@H](O)C[C@@H](Cc1ccccc1)C(=O)N[C@H]1c2ccccc2C[C@H]1O" ?
33.2

Which efflux ratio at 120 min, 1 µM value is on record for "CN[C@H]1CC[C@@H](c2ccc(Cl)c(Cl)c2)c2ccccc21" ?
3.1

----------
- TARGET_OR_TEST_SYSTEM: mouse Mdr1a (Mus musculus, UniProt P21447)
- Sequence (P21447 whole entry): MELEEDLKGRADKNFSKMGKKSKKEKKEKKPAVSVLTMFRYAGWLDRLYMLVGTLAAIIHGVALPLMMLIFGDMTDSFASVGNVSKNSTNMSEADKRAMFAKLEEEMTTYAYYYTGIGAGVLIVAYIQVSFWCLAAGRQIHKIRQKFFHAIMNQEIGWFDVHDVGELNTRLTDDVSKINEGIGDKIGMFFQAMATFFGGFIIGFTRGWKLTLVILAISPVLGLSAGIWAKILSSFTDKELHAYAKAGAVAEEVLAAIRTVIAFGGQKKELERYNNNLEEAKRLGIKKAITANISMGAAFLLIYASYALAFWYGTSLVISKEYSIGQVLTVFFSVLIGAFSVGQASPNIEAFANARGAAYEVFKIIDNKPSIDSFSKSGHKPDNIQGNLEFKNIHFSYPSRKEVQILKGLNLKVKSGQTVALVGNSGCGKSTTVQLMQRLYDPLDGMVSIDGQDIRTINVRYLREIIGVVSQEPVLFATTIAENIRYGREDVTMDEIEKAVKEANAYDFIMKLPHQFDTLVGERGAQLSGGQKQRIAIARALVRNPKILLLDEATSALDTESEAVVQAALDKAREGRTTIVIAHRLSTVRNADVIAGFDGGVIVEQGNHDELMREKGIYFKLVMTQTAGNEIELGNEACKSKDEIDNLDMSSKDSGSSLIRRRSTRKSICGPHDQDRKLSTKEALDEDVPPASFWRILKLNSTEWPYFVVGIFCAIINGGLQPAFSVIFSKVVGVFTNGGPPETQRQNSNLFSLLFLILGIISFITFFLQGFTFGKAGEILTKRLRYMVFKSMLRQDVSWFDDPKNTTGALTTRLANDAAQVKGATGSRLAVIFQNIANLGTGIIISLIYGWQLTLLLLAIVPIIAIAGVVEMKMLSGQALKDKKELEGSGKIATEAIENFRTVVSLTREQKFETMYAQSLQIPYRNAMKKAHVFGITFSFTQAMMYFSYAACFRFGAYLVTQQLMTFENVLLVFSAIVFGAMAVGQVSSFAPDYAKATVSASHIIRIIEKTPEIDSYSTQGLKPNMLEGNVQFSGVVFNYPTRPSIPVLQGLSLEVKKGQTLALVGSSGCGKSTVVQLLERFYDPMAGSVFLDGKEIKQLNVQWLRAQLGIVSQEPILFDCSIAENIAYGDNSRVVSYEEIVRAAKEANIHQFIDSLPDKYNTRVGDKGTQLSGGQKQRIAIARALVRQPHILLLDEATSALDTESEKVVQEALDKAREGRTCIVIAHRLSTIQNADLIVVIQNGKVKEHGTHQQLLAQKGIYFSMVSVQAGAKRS
- EXPERIMENT_SUMMARY: Inhibition of 3H-digoxin or 3H-quinidine bidirectional transport in mMDR1 cells
- Type: cell-based
- Set-up: mouse Mdr1a (NM_011076.3); expressed in transfected cells; host or cells: Abcb1KO-MDCKII (canine kidney, endogenous Abcb1 knocked out), transduced, single-cell clone
- TEST_SETTINGS: Inhibition of digoxin transport IC50±SD, mMDR1, probe 3H-digoxin 1 µM, 120 min; IC50 from ER
pIC50: −log10 of the molar value.
Is pIC50 at least 5? Then TRUE. If not, FALSE.

Hi, just wondering whether CCC(C)n1ncn(-c2ccc(N3CCN(c4ccc(OCC5COC(Cn6cncn6)(c6ccc(Cl)cc6Cl)O5)cc4)CC3)cc2)c1=O (centres unmarked) shows pIC50 of 5 or higher.
TRUE

Hi, just wondering whether "Cc1ccc(-c2ncc(Cl)cc2-c2ccc(S(C)(=O)=O)cc2)cn1" shows pIC50 of 5 or higher.
FALSE

Hi, just wondering whether COC(=O)C1=C(C)NC(C)=C(C(=O)OC(C)C)C1c1cccc2nonc12 (centres unmarked) shows pIC50 of 5 or higher.
TRUE

Hi, just wondering whether "C=C[C@H]1C[N@@]2CC[C@H]1C[C@@H]2[C@@H](O)c1ccnc2ccc(OC)cc12" shows pIC50 of 5 or higher.
FALSE

----------
For each of the compounds below, state its efflux ratio at 120 min, 1 µM.
- TARGET_OR_TEST_SYSTEM: cynomolgus monkey Mdr1 (Macaca fascicularis)
- EXPERIMENT_SUMMARY: Bidirectional transport assay, efflux ratio in Abcb1KO-MDCKII cyMDR1 cells
- TEST_SETTINGS: cynomolgus monkey, pH 7.4
Kindly provide the number alone.

I'm curious: which efflux ratio at 120 min, 1 µM was measured for CCN(CC)CCNC(=O)c1cc(Cl)c(N)cc1OC [Metoclopramide] tested on cynomolgus monkey Mdr1 (Macaca fascicularis)?
1.44

I'm curious: which efflux ratio at 120 min, 1 µM was measured for CCCc1nc2c(C)cc(-c3nc4ccccc4n3C)cc2n1Cc1ccc(-c2ccccc2C(=O)O)cc1 [Telmisartan] tested on cynomolgus monkey Mdr1 (Macaca fascicularis)?
3.18

I'm curious: which efflux ratio at 120 min, 1 µM was measured for CC(=O)CC(c1ccccc1)c1c(O)c2ccccc2oc1=O (centres unmarked) [Warfarin] tested on cynomolgus monkey Mdr1 (Macaca fascicularis)?
0.58

I'm curious: which efflux ratio at 120 min, 1 µM was measured for CC(C)C[C@H]1C(=O)N2CCC[C@H]2[C@]2(O)O[C@](NC(=O)[C@@H]3C=C4c5cccc6[nH]c(Br)c(c56)C[C@H]4N(C)C3)(C(C)C)C(=O)N12 [Bromocriptine] tested on cynomolgus monkey Mdr1 (Macaca fascicularis)?
1.08

I'm curious: which efflux ratio at 120 min, 1 µM was measured for COc1cc(Cc2cnc(N)nc2N)cc(OC)c1OC [Trimethoprim] tested on cynomolgus monkey Mdr1 (Macaca fascicularis)?
1.65

I'm curious: which efflux ratio at 120 min, 1 µM was measured for CN(C)CCC(c1ccccc1)c1ccccn1 (centres unmarked) [Pheniramine] tested on cynomolgus monkey Mdr1 (Macaca fascicularis)?
0.99

I'm curious: which efflux ratio at 120 min, 1 µM was measured for CN[C@H]1CC[C@@H](c2ccc(Cl)c(Cl)c2)c2ccccc21 [Sertraline] tested on cynomolgus monkey Mdr1 (Macaca fascicularis)?
5.65

I'm curious: which efflux ratio at 120 min, 1 µM was measured for CCN(CC)C(=O)/C(C#N)=C/c1cc(O)c(O)c([N+](=O)[O-])c1 [Entacapone] tested on cynomolgus monkey Mdr1 (Macaca fascicularis)?
0.46

----------
- TARGET_OR_TEST_SYSTEM: cynomolgus monkey Mdr1 (Macaca fascicularis, UniProt Q8HZQ6)
- Sequence (Q8HZQ6 1-1283): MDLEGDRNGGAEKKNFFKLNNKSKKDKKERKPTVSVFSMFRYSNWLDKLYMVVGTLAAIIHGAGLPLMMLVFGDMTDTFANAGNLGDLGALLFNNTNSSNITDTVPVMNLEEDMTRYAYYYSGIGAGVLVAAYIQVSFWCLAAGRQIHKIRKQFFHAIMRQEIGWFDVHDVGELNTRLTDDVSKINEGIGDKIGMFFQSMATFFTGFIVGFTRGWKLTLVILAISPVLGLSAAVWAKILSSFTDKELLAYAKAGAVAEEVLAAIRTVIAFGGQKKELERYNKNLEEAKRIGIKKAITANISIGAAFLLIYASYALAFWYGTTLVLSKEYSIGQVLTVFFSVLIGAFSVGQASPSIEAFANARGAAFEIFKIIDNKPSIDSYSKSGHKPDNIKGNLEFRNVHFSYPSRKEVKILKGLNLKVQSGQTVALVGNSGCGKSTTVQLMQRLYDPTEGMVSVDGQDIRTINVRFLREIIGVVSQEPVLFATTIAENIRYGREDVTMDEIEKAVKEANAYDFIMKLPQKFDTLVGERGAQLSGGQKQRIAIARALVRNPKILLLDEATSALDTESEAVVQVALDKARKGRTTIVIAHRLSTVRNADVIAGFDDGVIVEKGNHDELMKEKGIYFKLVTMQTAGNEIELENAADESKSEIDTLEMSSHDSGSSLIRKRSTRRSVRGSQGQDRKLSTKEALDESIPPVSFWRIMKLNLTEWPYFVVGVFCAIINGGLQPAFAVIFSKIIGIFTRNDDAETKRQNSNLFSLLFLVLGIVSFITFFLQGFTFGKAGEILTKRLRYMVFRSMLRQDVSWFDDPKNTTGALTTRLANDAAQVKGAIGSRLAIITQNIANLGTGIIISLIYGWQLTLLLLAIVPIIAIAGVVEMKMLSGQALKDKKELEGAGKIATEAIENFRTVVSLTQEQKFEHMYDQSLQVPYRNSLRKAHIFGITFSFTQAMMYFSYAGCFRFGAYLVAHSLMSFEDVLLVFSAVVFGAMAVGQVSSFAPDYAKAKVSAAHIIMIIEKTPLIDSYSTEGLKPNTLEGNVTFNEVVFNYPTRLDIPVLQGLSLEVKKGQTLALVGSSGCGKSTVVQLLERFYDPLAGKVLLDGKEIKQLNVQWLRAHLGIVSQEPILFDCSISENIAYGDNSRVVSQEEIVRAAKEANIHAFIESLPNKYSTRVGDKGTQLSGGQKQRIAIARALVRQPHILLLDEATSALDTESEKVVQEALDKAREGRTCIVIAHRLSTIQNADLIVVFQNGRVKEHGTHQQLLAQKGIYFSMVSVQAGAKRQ
- EXPERIMENT_SUMMARY: Bidirectional transport assay, efflux ratio in Abcb1KO-MDCKII cyMDR1 cells
- TEST_SETTINGS: cynomolgus monkey, pH 7.4
For each of the compounds below, state its efflux ratio at 120 min, 1 µM.

I'm curious: which efflux ratio at 120 min, 1 µM was measured for C=CCN1CC[C@]23c4c5ccc(O)c4O[C@H]2C(=O)CC[C@@]3(O)[C@H]1C5 [Naloxone] tested on cynomolgus monkey Mdr1 (Macaca fascicularis, UniProt Q8HZQ6)?
0.48

I'm curious: which efflux ratio at 120 min, 1 µM was measured for COc1cc([C@@H]2c3cc4c(cc3[C@@H](O[C@@H]3O[C@@H]5CO[C@@H](C)O[C@H]5[C@H](O)[C@H]3O)[C@H]3COC(=O)[C@H]23)OCO4)cc(OC)c1O [Etoposide] tested on cynomolgus monkey Mdr1 (Macaca fascicularis, UniProt Q8HZQ6)?
4.41

I'm curious: which efflux ratio at 120 min, 1 µM was measured for CN(C)C(=O)C(CCN1CCC(O)(c2ccc(Cl)cc2)CC1)(c1ccccc1)c1ccccc1 [Loperamide] tested on cynomolgus monkey Mdr1 (Macaca fascicularis, UniProt Q8HZQ6)?
6.38

I'm curious: which efflux ratio at 120 min, 1 µM was measured for CN(C)CCc1c[nH]c2ccc(C[C@H]3COC(=O)N3)cc12 [Zolmitriptan] tested on cynomolgus monkey Mdr1 (Macaca fascicularis, UniProt Q8HZQ6)?
2.24

I'm curious: which efflux ratio at 120 min, 1 µM was measured for CN/C(=N/CCSCc1nc[nH]c1C)NC#N [Cimetidine] tested on cynomolgus monkey Mdr1 (Macaca fascicularis, UniProt Q8HZQ6)?
2.75

I'm curious: which efflux ratio at 120 min, 1 µM was measured for C[C@]12C=CC(=O)C=C1CC[C@@H]1[C@@H]2C(=O)C[C@@]2(C)[C@H]1CC[C@]2(O)C(=O)CO [Prednisone] tested on cynomolgus monkey Mdr1 (Macaca fascicularis, UniProt Q8HZQ6)?
4.41

I'm curious: which efflux ratio at 120 min, 1 µM was measured for CC(=O)O[C@H]1C(=O)[C@@]2(C)[C@H]([C@H](OC(=O)c3ccccc3)[C@]3(O)C[C@H](OC(=O)[C@H](O)[C@@H](NC(=O)c4ccccc4)c4ccccc4)C(C)=C1C3(C)C)[C@]1(OC(C)=O)CO[C@@H]1C[C@@H]2O [Paclitaxel] tested on cynomolgus monkey Mdr1 (Macaca fascicularis, UniProt Q8HZQ6)?
33.4

I'm curious: which efflux ratio at 120 min, 1 µM was measured for O=C1c2c(O)ccc(O)c2C(=O)c2c(NCCNCCO)ccc(NCCNCCO)c21 [Mitoxantrone] tested on cynomolgus monkey Mdr1 (Macaca fascicularis, UniProt Q8HZQ6)?
40.3

I'm curious: which efflux ratio at 120 min, 1 µM was measured for COCCc1ccc(OCC(O)CNC(C)C)cc1 (stereo not shown) [Metoprolol] tested on cynomolgus monkey Mdr1 (Macaca fascicularis, UniProt Q8HZQ6)?
0.74

I'm curious: which efflux ratio at 120 min, 1 µM was measured for Cc1cccc(C)c1OCC(C)N (stereo not shown) [Mexiletine] tested on cynomolgus monkey Mdr1 (Macaca fascicularis, UniProt Q8HZQ6)?
0.51

I'm curious: which efflux ratio at 120 min, 1 µM was measured for Cc1ccc(NC(=O)c2ccc(CN3CCN(C)CC3)cc2)cc1Nc1nccc(-c2cccnc2)n1 [Imatinib] tested on cynomolgus monkey Mdr1 (Macaca fascicularis, UniProt Q8HZQ6)?
10.5

I'm curious: which efflux ratio at 120 min, 1 µM was measured for CC(C)(C)c1ccc(C(O)CCCN2CCC(C(O)(c3ccccc3)c3ccccc3)CC2)cc1 (stereo not shown) [Terfenadine] tested on cynomolgus monkey Mdr1 (Macaca fascicularis, UniProt Q8HZQ6)?
0.92

I'm curious: which efflux ratio at 120 min, 1 µM was measured for COc1ccc2c(c1)[C@]13CCCC[C@@H]1[C@H](C2)N(C)CC3 [Dextromethorphan] tested on cynomolgus monkey Mdr1 (Macaca fascicularis, UniProt Q8HZQ6)?
0.75

I'm curious: which efflux ratio at 120 min, 1 µM was measured for COc1ccc2c(c1)c(CC(=O)O)c(C)n2C(=O)c1ccc(Cl)cc1 [Indomethacin] tested on cynomolgus monkey Mdr1 (Macaca fascicularis, UniProt Q8HZQ6)?
0.4

I'm curious: which efflux ratio at 120 min, 1 µM was measured for CC(C)(C)NC(=O)[C@@H]1CN(Cc2cccnc2)CCN1C[C@@H](O)C[C@@H](Cc1ccccc1)C(=O)N[C@H]1c2ccccc2C[C@H]1O [Indinavir] tested on cynomolgus monkey Mdr1 (Macaca fascicularis, UniProt Q8HZQ6)?
34.8

I'm curious: which efflux ratio at 120 min, 1 µM was measured for N=C(N)NC(=O)Cc1c(Cl)cccc1Cl [Guanfacine] tested on cynomolgus monkey Mdr1 (Macaca fascicularis, UniProt Q8HZQ6)?
0.65
